test system: 252836-082-R-J2-PDC tumor spheroids, viability; assay: Anticancer human tumor 252836-082-R-J2-PDC patient-derived head and neck squamous cell carcinoma cell line growth inhibition [PI3K]; settings: curve of first compound; second compound 0.1 µM; spheroids with HUVEC and MSC
quantity: IC50

Below, each entry is followed by its recorded IC50 result.
CC(C)NCC(C(=O)N1CCN(c2ncnc3c2C(C)CC3O)CC1)c1ccc(Cl)cc1 (stereo unspecified) + Cc1nc(NC(=O)N2CCCC2C(N)=O)sc1-c1ccnc(C(C)(C)C(F)(F)F)c1 :: 0.784 µM
CCCS(=O)(=O)Nc1ccc(F)c(C(=O)c2c[nH]c3ncc(-c4ccc(Cl)cc4)cc23)c1F + CC(Nc1ccc2c(c1)OCCn1cc(N3C(=O)OCC3C(F)F)nc1-2)C(N)=O :: 3.43 µM
CCCS(=O)(=O)Nc1ccc(F)c(C(=O)c2c[nH]c3ncc(-c4ccc(Cl)cc4)cc23)c1F + CC(Nc1ncnc2nc[nH]c12)c1cc2cccc(Cl)c2c(=O)n1-c1ccccc1 :: 5.5 µM
C#Cc1c(F)ccc2cc(O)cc(-c3ncc4c(N5CC6CCC(C5)N6)nc(OCC56CCCN5CC(F)C6)nc4c3F)c12 (stereo unspecified) + Cc1nc(NC(=O)N2CCCC2C(N)=O)sc1-c1ccnc(C(C)(C)C(F)(F)F)c1 :: > 10 µM
C=CC(=O)N1CCN(c2nc(=O)n(-c3c(C)ccnc3C(C)C)c3nc(-c4c(O)cccc4F)c(F)cc23)C(C)C1 (stereo unspecified) + CC(Nc1ccc2c(c1)OCCn1cc(N3C(=O)OCC3C(F)F)nc1-2)C(N)=O :: > 10 µM
CC1(C)CCC(Nc2ncc(C(F)(F)F)c(-c3c[nH]c4c(P(C)(C)=O)c(C#N)ccc34)n2)CN1 (stereo unspecified) + CC(Nc1ccc2c(c1)OCCn1cc(N3C(=O)OCC3C(F)F)nc1-2)C(N)=O :: < 0.0316 µM
C[C@@H](NC(=O)c1ncnc(N)c1Cl)c1ncc(C(=O)Nc2cc(C(F)(F)F)c(Cl)cn2)s1 + Cc1nc(NC(=O)N2CCCC2C(N)=O)sc1-c1ccnc(C(C)(C)C(F)(F)F)c1 :: > 10 µM
CC(=O)c1c(C)c2cnc(Nc3ccc(N4CCNCC4)cn3)nc2n(C2CCCC2)c1=O + COc1c(OCCCN2CCOCC2)ccc2c3n(c(=NC(=O)c4cnc(N)nc4)nc12)CCN3 :: < 0.000316 µM
Cn1nccc1Nc1nccc(-c2ccn(C(CO)c3ccc(Cl)c(F)c3)c(=O)c2)n1 (stereo unspecified) + COc1c(OCCCN2CCOCC2)ccc2c3n(c(=NC(=O)c4cnc(N)nc4)nc12)CCN3 :: < 0.0316 µM
C#Cc1c(F)ccc2cc(O)cc(-c3ncc4c(N5CC6CCC(C5)N6)nc(OCC56CCCN5CC(F)C6)nc4c3F)c12 (stereo unspecified) + CC(Nc1ccc2c(c1)OCCn1cc(N3C(=O)OCC3C(F)F)nc1-2)C(N)=O :: 3.73 µM

Switching to the query record.
Fill in reported IC50 for this entry: CC(C)n1nc(-c2ccc3oc(N)nc3c2)c2c(N)ncnc21 + COc1c(OCCCN2CCOCC2)ccc2c3n(c(=NC(=O)c4cnc(N)nc4)nc12)CCN3 < 0.000316 µM

* * *

For each record, write down the corresponding viability, T/C.
test system: 252836-082-R-J2-PDC tumor spheroids, viability; assay: Anticancer human tumor 252836-082-R-J2-PDC cell line growth inhibition [PI3K]; settings: second compound 0.01 µM; first compound 0.000316 µM; stronger effect = lower value; spheroids with HUVEC and MSC;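 further: spheroids exposed to agents for seven days before readout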;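 on viability, T/C: percent of vehicle DMSO control viability so 100% = untreated growth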
Give bare numbers, in %.

Cn1ncnc1[C@H]1c2n[nH]c(=O)c3cc(F)cc(c23)N[C@@H]1c1ccc(F)cc1 + COc1c(OCCCN2CCOCC2)ccc2c3n(c(=NC(=O)c4cnc(N)nc4)nc12)CCN3 :: 80.1
Cn1ncnc1[C@H]1c2n[nH]c(=O)c3cc(F)cc(c23)N[C@@H]1c1ccc(F)cc1 + CC(Nc1ccc2c(c1)OCCn1cc(N3C(=O)OCC3C(F)F)nc1-2)C(N)=O :: 85.6

Switching to the query record.
Fill in reported viability, T/C for this entry: CC(=O)c1c(C)c2cnc(Nc3ccc(N4CCNCC4)cn3)nc2n(C2CCCC2)c1=O + CC(Nc1ccc2c(c1)OCCn1cc(N3C(=O)OCC3C(F)F)nc1-2)C(N)=O 97.1

These data points were gathered from PubChem BioAssay AID1963985.
